The reported numbers originate from patent US20040198654A1.

system_tested: GLP-1 receptor
protocol: cell-based or functional assay
Where no end group is shown, it is not given here.
# GLP-1 receptor activation relative to Val^8-GLP-1(7-37)OH per record follows

Previously resolved entries follow.
- binder: "HVEGTFTSDVSSYLEGQALKEFIAWLVKGRG-OH [Val^8-Leu^25-GLP-1(7-37)OH]"
  result: "0.5 fold of Val^8-GLP-1(7-37)OH"
- binder: "HVEGTWTSDVSSYLEEQAAKEFIAWLVKGRG-OH [Val^8-Trp^12-Glu^22-GLP-1(7-37)OH]"
  result: "1.7 fold of Val^8-GLP-1(7-37)OH"
- binder: "HVEGTFTSDYSSYLEGQAAKEFIAWLVKGRG-OH [Val^8-Tyr^16-GLP-1(7-37)OH]"
  result: "2.5 fold of Val^8-GLP-1(7-37)OH"
- binder: "HVEGTYTSDVSSYLEGQAAKEFIAWLVKGR-NH2 [Val^8-Tyr^12-GLP-1(7-36)NH2]"
  result: "1.1 fold of Val^8-GLP-1(7-37)OH"
- binder: "HVEGTFTSDISSYLEEQAAKEFIAWLVKGRG-OH [Val^8-Ile^16-Glu^22-GLP-1(7-37)OH]"
  result: "3.3 fold of Val^8-GLP-1(7-37)OH"

Now consider a different binder.
Data request, read-out GLP-1 receptor activation relative to Val^8-GLP-1(7-37)OH, for HVEGTYTSDYSSYLEGQAAKEFIAWLVKGRG-OH [Val^8-Tyr^12-Tyr^16-GLP-1(7-37)OH] 1.5 fold of Val^8-GLP-1(7-37)OH
